# assay.overview: Retention time in monkey liver microsomes treated with at 5 mM PPI-2458 by LC/MS analysis
# Type: ADME, Macaca mulatta
# recorded.conditions: rhesus monkey, 5000 µM
Reported Retention_time values are given for each entry in this list.
Write down the numeric answer in min and omit the unit.

Solved entries:
• CO[C@@H]1[C@H](OC(=O)N[C@@H](C(N)=O)C(C)C)CC[C@]2(CO2)[C@H]1[C@@]1(C)O[C@@H]1C[C@@H]1OC1(C)C = 20.1
• CO[C@@H]1[C@H](OC(=O)N[C@@H](C(N)=O)C(C)C)CC[C@]2(CO2)[C@H]1[C@@]1(C)O[C@@H]1C/C=C(\C)CO = 17.6
• CO[C@@H]1[C@H](OC(=O)N[C@@H](C(N)=O)C(C)C)CC[C@]2(CO2)[C@H]1[C@@]1(C)O[C@@H]1C[C@H]1OC1(C)C = 20.8

Please look up its Retention_time: `CO[C@@H]1[C@H](OC(=O)N[C@@H](C(N)=O)C(C)(C)O)CC[C@]2(CO2)[C@H]1[C@@]1(C)O[C@@H]1CC=C(C)C`
26.7

###

Reported Retention_time values are given for each entry in this list.
# System: Liver microsome
# assay.overview: Retention time in dog liver microsomes treated with at 5 mM PPI-2458 by LC/MS analysis
# Assay type: ADME, Canis lupus familiaris
# recorded.conditions: 5000 µM
Write down the numeric answer in min and omit the unit.

Solved entries:
- CO[C@@H]1[C@H](OC(=O)N[C@@H](C(N)=O)C(C)C)CC[C@]2(CO2)[C@H]1[C@@]1(C)O[C@@H]1C[C@H]1OC1(C)C: 20.8
- CO[C@@H]1[C@H](OC(=O)N[C@@H](C(N)=O)C(C)(C)O)CC[C@]2(CO2)[C@H]1[C@@]1(C)O[C@@H]1CC=C(C)C: 26.7
- CO[C@@H]1[C@H](OC(=O)N[C@@H](C(N)=O)C(C)C)CC[C@]2(CO2)[C@H]1[C@@]1(C)O[C@@H]1C/C=C(\C)CO: 17.6

Turning now to a further record.
Please look up its Retention_time: `CO[C@@H]1[C@H](OC(=O)N[C@@H](C(N)=O)C(C)C)CC[C@]2(CO2)[C@H]1[C@@]1(C)O[C@@H]1C[C@@H]1OC1(C)C`
20.1

###

# assay.overview: Tmax in non-Hodgkin lymphoma patient at 15 mg, po alternate days for 21 days
# Format: ADME, organism-based
# recorded.conditions: human, in vivo
measured.endpoint: Tmax

Please look up its Tmax: CO[C@@H]1[C@H](OC(=O)N[C@@H](C(N)=O)C(C)C)CC[C@]2(CO2)[C@H]1[C@@]1(C)O[C@@H]1CC=C(C)C [PPI-2458]
36 min

###

# Test system: CYP3A5 (Homo sapiens)
# assay.overview: Activity of human recombinant CYP3A5 assessed as ((3R,4S,5S,6R)-4-((2R,3R)-3-(((S)-3,3-dimethyloxiran-2-yl)methyl)-2-methyloxiran-2-yl)-5-methoxy-1-oxaspiro[2.5]octan-6-yl ((R)-1-amino-3-methyl-1-oxobutan-2-yl)carbamate) formation
# recorded.conditions: recombinant enzyme
measured.endpoint: Km (µM)
Write down the numeric answer in µM and omit the unit.

Please look up its Km: `CO[C@@H]1[C@H](OC(=O)N[C@@H](C(N)=O)C(C)C)CC[C@]2(CO2)[C@H]1[C@@]1(C)O[C@@H]1CC=C(C)C`
17
